melting point overview

given-smiles	melting point
Cc1cn(-c2cccc(C3=Nc4ccc(-c5ccc(F)cc5)cc4NC(=O)C3)c2)c(C)n1	188 °C
O=C1CC(c2cccc(I)c2)=Nc2ccc(C#Cc3ccccc3)cc2N1	227 to 229 °C (dec.)
N#Cc1cccc(C2=Nc3ccc(-c4ccncc4)cc3NC(=O)C2)c1	> 200 °C (dec.)
Cc1cn(-c2cccc(C3=Nc4ccc(C#Cc5ccc(F)cc5)cc4NC(=O)C3)c2)cn1	210 °C
N#Cc1cccc(C2=Nc3ccc(C#Cc4ccc(F)cc4F)cc3NC(=O)C2)c1	240 to 246 °C
N#Cc1cccc(C2=Nc3ccc(C#CC4=CCNCC4)cc3NC(=O)C2)c1	184 °C
O=C1CC(c2cccc(-c3nc(C(=O)NCCO)cs3)c2)=Nc2ccc(-c3ccc(F)cc3)cc2N1	238 to 245 °C (dec.)
CCc1ccc(-c2ccc3c(c2)NC(=O)CC(c2cccc(C#N)c2)=N3)cc1	225 to 229 °C (dec.)

---

melting point overview

molecule	melting point
O=C1CC(c2cccc(-c3noc(CCCO)n3)c2)=Nc2ccc(-c3ccc(F)cc3)cc2N1 [Example 168]	220 to 222 °C
COc1ccc(-c2ccc3c(c2)NC(=O)CC(c2cccc(-n4ccnc4)c2)=N3)cc1 [Example 61]	207 to 208 °C
NC(=S)c1cccc(C2=Nc3ccc(-c4ccc(F)cc4)cc3NC(=O)C2)c1 [Example 149]	267 to 270 °C (dec.)
Cc1cc(-c2cccc(C3=Nc4ccc(-c5ccc(F)cc5)cc4NC(=O)C3)c2)on1 [Example 117]	> 250 °C
O=C1CC(c2cccc(-n3cncn3)c2)=Nc2ccc(-c3ccc(F)cc3)cc2N1 [Example 64]	241 to 245 °C
N#Cc1ccc(F)c(C2=Nc3ccc(-c4ccccc4F)cc3NC(=O)C2)c1 [Example 103]	239 °C
N#Cc1cccc(C2=Nc3ccc(-c4ccccn4)cc3NC(=O)C2)c1 [Example 28]	243 to 244 °C (dec.)
N#Cc1ccc(-c2ccc3c(c2)NC(=O)CC(c2cccc(-n4ccnc4)c2)=N3)cc1 [Example 66]	209 to 213 °C (dec.)
C[Si](C)(C)C#Cc1cccc(C2=Nc3ccc(C#Cc4ccccc4)cc3NC(=O)C2)c1	169 to 171 °C (dec.)
N#Cc1cccc(C2=Nc3ccc(-c4ccc(Cl)cc4)cc3NC(=O)C2)c1 [Example 15]	244 to 250 °C (dec.)
O=C1CC(c2cccs2)=Nc2ccc(-c3ccc(=O)[nH]c3)cc2N1 [Example 41]	> 250 °C
N#Cc1cccc(C2=Nc3ccc(-c4ccccc4Cl)cc3NC(=O)C2)c1 [Example 33]	240 to 244 °C (dec.)
CC(=O)N1CC=C(C#Cc2ccc3c(c2)NC(=O)CC(c2cccc(C#N)c2)=N3)CC1 [Example 141]	203 °C
O=C1CC(c2csc(-n3ccnc3)n2)=Nc2ccc(-c3ccccc3F)cc2N1 [Example 124]	194 to 197 °C
CCOC(=O)c1csc(-c2cc(C3=Nc4ccc(-c5ccc(F)cc5)cc4NC(=O)C3)ccn2)n1 [Example 155]	238 to 240 °C (dec.)
O=C1CC(c2ccnc(-n3ccnc3)c2)=Nc2ccc(C#Cc3ccc(F)cc3)cc2N1 [Example 68]	206 °C (dec.)
N#Cc1cccc(C2=Nc3ccc(-c4ccc(OC(F)(F)F)cc4)cc3NC(=O)C2)c1 [Example 43]	237 to 241 °C (dec.)
